Tested on: HL-60
assay.notes: NCI tumour cell line growth inhibition, 48 h
Calls of active or inactive are those of the source. No stated cut-off is given here; in the data, active = GI50 up to about 1.1 µM and inactive = higher.
Possible outcomes: active, inactive

INSERT INTO assay_data (compound, class_assignment) VALUES
  ('O=C(Nc1cc2c(=O)oc3ccccc3c2oc1=O)c1cccnc1', 'inactive'),
  ('O=C1C2=C(N[C@@H](c3ccccc3)[C@H](c3ccccc3)N2)C(=O)c2ccccc21', 'inactive'),
  ('CCOC(=O)C1=C(C)C(C(=O)OC)/C(=C/c2cccc3cccnc23)C1=O (stereo not given)', 'inactive'),
  ('N#Cc1cnn2ccn(C3OC(COC(=O)c4ccccc4)C(OC(=O)c4ccccc4)C3OC(=O)c3ccccc3)c12 (stereo not given)', 'inactive'),
  ('Cc1cn(C2CC(Br)C(COC(c3ccccc3)(c3ccccc3)c3ccccc3)O2)c(=O)[nH]c1=O (stereo not given)', 'inactive'),
  ('C=CCN1C(=O)/C(=C/c2ccc(C)cc2)N=C1SC/C=C/C', 'inactive'),
  ('C[N+]1=c2c3cccc4cccc(c(=O)n2CCC1)c43', 'inactive'),
  ('Cc1cc(N(CCC#N)CCC#N)ccc1/C(Sc1ccccc1)=C(\NC(=O)/C=C/c1ccccc1)C(=O)Sc1ccccc1', 'active'),
  ('O=C1OC(=O)C2C3C=CC(C12)C1C2C=CC2C31 (stereo not given)', 'inactive'),
  ('C=CCC(C)C12CCNC(Cc3ccc(O)cc31)C2C (stereo not given)', 'inactive');
